Values were extracted from patent US7803765B2.

system: anti-Der p 1 monoclonal antibody 2C7; test: T7-DELFIA binding of phage-displayed peptides to panning antibody 2C7; conditions: 50 μl lysate in the standard T7-DELFIA; 500 ng/well 2C7
Where no end group is shown, it is not given here.
I'd appreciate it if you marked entries Yes when TRF (time resolved fluorometry) binding to 2C7 is lower than 8000 TRF and No when it is not.

GDPN S S T S P R (GDPNSSTSPR; numbers in words are those of the source; also: displayed on T7 phage) [Clone 2c7pan8] = Yes

Consider GDPN S R G K S R E Y L S (GDPNSRGKSREYLS; numbers in words are those of the source; also: displayed on T7 phage) [Clone 2c7pan14] . Does its TRF (time resolved fluorometry) binding to 2C7 lie strictly below 8000 TRF?
Yes

# repeat for GDP R T H R (GDPRTHR; numbers in words are those of the source; also: displayed on T7 phage) [Clone 2c7pan26]
No

# repeat for GDPN S A S G T A (GDPNSASGTA; numbers in words are those of the source; also: displayed on T7 phage) [Clone 2c7pan9]
No

# repeat for GDPN S S S V D K L G Y W R V T E S S N E (GDPNSSSVDKLGYWRVTESSNE; numbers in words are those of the source; also: displayed on T7 phage) [Clone 2c7pan42]
No
